- measuredTarget: ABCG2 (Homo sapiens)
- Sequence (Q9UNQ0 1-655): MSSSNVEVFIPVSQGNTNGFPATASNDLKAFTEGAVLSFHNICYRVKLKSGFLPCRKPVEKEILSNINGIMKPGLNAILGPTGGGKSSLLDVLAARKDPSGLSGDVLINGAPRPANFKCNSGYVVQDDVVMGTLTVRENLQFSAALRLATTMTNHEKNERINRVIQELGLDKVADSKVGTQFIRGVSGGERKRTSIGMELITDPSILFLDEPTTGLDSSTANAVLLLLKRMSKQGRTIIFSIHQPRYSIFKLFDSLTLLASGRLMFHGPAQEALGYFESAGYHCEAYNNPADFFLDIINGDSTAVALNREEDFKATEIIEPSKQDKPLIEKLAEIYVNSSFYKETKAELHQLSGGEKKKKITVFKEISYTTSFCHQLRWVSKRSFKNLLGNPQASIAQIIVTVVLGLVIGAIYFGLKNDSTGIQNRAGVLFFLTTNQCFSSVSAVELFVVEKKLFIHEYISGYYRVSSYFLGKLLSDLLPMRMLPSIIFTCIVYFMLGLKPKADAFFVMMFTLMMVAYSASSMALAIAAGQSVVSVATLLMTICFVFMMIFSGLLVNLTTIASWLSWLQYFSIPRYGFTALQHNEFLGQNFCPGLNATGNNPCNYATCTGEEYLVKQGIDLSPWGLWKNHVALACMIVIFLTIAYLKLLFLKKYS
- methodDescription: JC-1 efflux inhibition dose response, flow cytometry, Ig-MXP3 cells
measuredProperty: pIC50
In simple prose, pIC50 is minus the logarithm base ten of a concentration in moles per litre.

# annotated cases, reported pIC50 shown
| recordSmiles | pIC50 |
| --- | --- |
| O=C(Cc1ccccc1)N1CCN(c2cc(-c3ccccc3)nc3cc(-c4cccc(Cl)c4)nn23)CC1 | 5.24 |
| Cc1cccc(-c2cc3nc(-c4ccco4)cc(N4CCN(C(=O)c5ccoc5)CC4)n3n2)c1 | 6.24 |
| O=C(OCc1ccccc1)N1CCN(c2cc(-c3ccco3)nc3cc(-c4ccccc4)nn23)CC1 | 5.57 |

Here's the next entry for you.
Looking for the measured pIC50 of O=C(c1ccoc1)N1CCN(c2cc(-c3ccc(F)cc3)nc3cc(-c4cccc(Cl)c4)nn23)CC1 , can you help?
5.62
